# subject.of.test: FGFR3 (UniProt P22607)
# Sequence (P22607 whole entry, looked up): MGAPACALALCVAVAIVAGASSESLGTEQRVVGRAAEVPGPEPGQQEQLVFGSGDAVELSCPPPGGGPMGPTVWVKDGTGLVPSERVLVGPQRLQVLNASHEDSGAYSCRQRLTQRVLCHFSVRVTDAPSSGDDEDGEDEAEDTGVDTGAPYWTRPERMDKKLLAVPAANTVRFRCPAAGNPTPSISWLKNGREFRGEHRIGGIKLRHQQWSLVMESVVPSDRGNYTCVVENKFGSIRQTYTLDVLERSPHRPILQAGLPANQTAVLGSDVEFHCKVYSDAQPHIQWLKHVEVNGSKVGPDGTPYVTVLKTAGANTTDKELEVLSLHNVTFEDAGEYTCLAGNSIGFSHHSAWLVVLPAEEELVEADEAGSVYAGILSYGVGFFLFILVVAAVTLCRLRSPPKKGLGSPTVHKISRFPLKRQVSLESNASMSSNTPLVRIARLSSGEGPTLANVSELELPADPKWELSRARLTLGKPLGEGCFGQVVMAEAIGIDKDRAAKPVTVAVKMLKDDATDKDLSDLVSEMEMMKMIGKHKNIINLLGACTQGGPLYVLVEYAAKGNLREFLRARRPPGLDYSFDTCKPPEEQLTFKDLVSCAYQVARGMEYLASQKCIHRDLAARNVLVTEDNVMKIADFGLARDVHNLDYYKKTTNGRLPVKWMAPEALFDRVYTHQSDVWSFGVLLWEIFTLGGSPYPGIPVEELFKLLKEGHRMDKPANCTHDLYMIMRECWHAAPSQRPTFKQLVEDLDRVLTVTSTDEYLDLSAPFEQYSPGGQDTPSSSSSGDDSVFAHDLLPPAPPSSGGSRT
# method.notes: phosphorylation enrichment, bacterial display (enrichment ratio); higher = better substrate or ligand; peptides without Tyr show the background;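 also: 11-residue human phosphosite peptides and single-mutation variants displayed on the E. coli surface, counted by deep sequencing, each peptide's frequency after selection divided by its frequency in the unselected input library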;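 also: frequency after pTyr selection over input frequency; kinase dosed for 20-30% of maximal phosphorylation in three min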
metric.name: phosphorylation enrichment
Write the value as a bare number.

Known phosphorylation enrichment results, listed for orientation:
Q) Using the record for IEPVIDVVQRR [ANOS1_Y217_Y217D] , report its phosphorylation enrichment.
A) 0.592

Q) Using the record for IVEFAYNDKAI [PUM3_Y259_YF] , report its phosphorylation enrichment.
A) 0.525

Shift focus to the following entry.
Q) Using the record for GGQVFHNSEFG [FLT4_Y1333_Y1333H_YF] , report its phosphorylation enrichment.
A) 0.572
